// Ki collected for human vasopressin V1b receptor (Homo sapiens, UniProt P47901)
Counter-ions that a name gives are not always drawn.
Property Label: Ki

Molecule	Endpoint Result
COc1ccc(S(=O)(=O)N2C(=O)C(c3ccc(CN4CCCC4)cc3OC)(N3CCC[C@H]3C(=O)N(C)C)c3cc(Cl)ccc32)cc1 (single isomer, unassigned)	< 1 nM
COc1cc(CN2CCCC2)ccc1C1(N2CCC[C@H]2C(=O)N(C)C)C(=O)N(S(=O)(=O)c2ccc(F)cc2)c2ccc(Cl)cc21 (stereo partly shown) [Example 3, trifluoroacetic acid salt]	1 to 10 nM
CCN(CC)Cc1ccc(C2(N3CCC[C@H]3C(=O)N(C)C)C(=O)N(S(=O)(=O)c3ccc(OC)cc3)c3ccc(Cl)cc32)c(OC)c1 (stereo partly shown) [Example 86, trifluoroacetic acid salt]	< 1 nM
COc1ccc(S(=O)(=O)N2C(=O)C(c3cc(CN4CCCCC4)ccc3OC)(N3CCC[C@H]3C(=O)N(C)C)c3cc(Cl)ccc32)c(OC)c1 (stereo partly shown) [Example 26, trifluoroacetic acid salt]	< 1 nM
COc1ccc(S(=O)(=O)N2C(=O)C(c3cc(CN4CCN(C)CC4)ccc3OC)(N3CCC[C@H]3C(=O)N(C)C)c3cc(Cl)ccc32)c(OC)c1 (stereo partly shown) [Example 27, trifluoroacetic acid salt]	< 1 nM
COc1ccc(S(=O)(=O)N2C(=O)C(c3ccc(CN4CCCC4)cc3OC)(N(C)[C@@H](C)C(=O)N(C)C)c3cc(Cl)ccc32)c(OC)c1 (stereo partly shown)	1 to 10 nM
COc1ccc(S(=O)(=O)N2C(=O)C(c3ccc(CN4CCNCC4)cc3OC)(N3CCC[C@H]3C(=O)N(C)C)c3cc(Cl)ccc32)cc1 (stereo partly shown) [Example 79, trifluoroacetic acid salt]	< 1 nM
CCCNCc1ccc(OC)c(C2(N3CCC[C@H]3C(=O)N(C)C)C(=O)N(S(=O)(=O)c3ccc(C#N)cc3)c3ccc(Cl)cc32)c1 (stereo partly shown) [Example 100, trifluoroacetic acid salt]	< 1 nM
COc1ccc(S(=O)(=O)N2C(=O)C(c3ccc(CNC(C)C)cc3OC)(N3CCC[C@H]3C(=O)N(C)C)c3cc(Cl)ccc32)cc1 (stereo partly shown) [Example 94, trifluoroacetic acid salt]	< 1 nM
COc1cc(CN2CCOCC2)ccc1C1(N2CCC[C@H]2C(=O)N(C)C)C(=O)N(S(=O)(=O)c2ccc(C#N)cc2)c2ccc(Cl)cc21 (stereo partly shown) [Example 81, trifluoroacetic acid salt]	1 to 10 nM
